Toxicity by entry:
system: HepG2 cells
MEASURE: Toxicity (µM)

COMPOUND	NUMERIC_READOUT
CC(CCC[C@@H](C)[C@H]1CC[C@H]2[C@@H]3[C@H](O)C[C@@H]4C[C@H](O)CC[C@]4(C)[C@H]3C[C@H](O)[C@]12C)C(=O)NCCS(=O)(=O)O (some centres unmarked) [BI038]	200
C[C@H](CCC(O)C(CO)CO)[C@H]1CC[C@H]2[C@@H]3[C@H](O)C[C@@H]4C[C@H](O)CC[C@]4(C)[C@H]3C[C@H](O)[C@]12C (stereo partly drawn) [BI35, 5β-Cholestan-3α,7α,12α,24,26-hexol]	100

All values here come from paper PMC2358886.
